Test: binders from COS7 lysate, DM2A8 probe, primary screen, torsin A project, cell lysate, small-molecule microarray, fluorescence 635/667 (AID 1065)
Conditions: higher = more signal, COS7 lysate expressing mutant human TOR1A
Assign class by composite z-score: not lower than 0.09 means satisfied; lower than 0.09 means not satisfied.

In plain terms: is recorded composite z-score at least 0.09 for O=C1OCCC=C[C@H]2OC34C=CCN(c5ccc6ccccc6c5)C(=O)[C@H]3N(CCCO)C(=O)[C@@H]4C12 (some centres not stated) ?
not satisfied

Please tell me: is the compound COCCOC(=O)N1C(=O)[C@@]2(c3ccccc31)[C@H](C(=O)NC[C@H](O)c1ccccc1)[C@H]1C(=O)O[C@H](c3ccccc3)[C@H](c3ccccc3)N1[C@@H]2c1ccc(O)cc1 at or over 0.09 in terms of composite z-score?
satisfied

Does O=C1O[C@@H](c2ccccc2)[C@@H](c2ccccc2)N2[C@@H](c3ccc(OCCO)cc3)[C@]3(C(=O)Nc4ccc(C#CC5=CCCCC5)cc43)[C@@H](C(=O)NC[C@H](O)c3ccccc3)[C@H]12 have a reported composite z-score of at least 0.09?
satisfied

Can CCOc1cc(C(O)C2C=CC3C(=O)NC(=O)C3N2Nc2ccc(Cl)cc2Cl)ccc1O (configuration not stated) be said to have composite z-score at or above 0.09?
not satisfied

Dear colleague, could you confirm whether COC(=O)[C@@]1(Cc2ccc(F)cc2)[C@H]2c3cc(C(=O)N(C)C)n(CCc4ccc(OC)c(Br)c4)c3C[C@H]2CN1C(=O)c1ccccc1 has composite z-score at or above 0.09?
not satisfied

Now, please, on to the next compound.
Decide: composite z-score of CCOC(=O)C1=CC[C@@H](c2ccccc2F)N(S(=O)(=O)c2ccc(C)cc2)[C@H]1c1ccccc1 >= 0.09?
not satisfied
